Measured log10 IC50, listed per entry.
Tested on: IL-6
Assay Explanation: IL-6 ELISA in HIVIL (iKCs co-cultured with iHeps, LPS, 48 hr)
Assay type: cell-based, human
Experimental Context: Homo sapiens; HIVIL, LPS, 48 hr
Result Type: log10 IC50 (log10 of the value in µM)

> print(dat)
                                   molecule  measurement
1  CN(C)CCCN1c2ccccc2Sc2ccc(Cl)cc21 [CPZ, Chlorpromazine]         1.11
2  CC(=O)Nc1ccc(O)cc1 [APAP, acetaminophen]         3.73
3  CC1=C(CC(=O)O)c2cc(F)ccc2/C1=C\c1ccc([S+](C)[O-])cc1 (stereo not shown) [SLD, sulindac]         2.58
4  CCCc1cc(=O)[nH]c(=S)[nH]1 [PTU, propylthiouracil]         2.41
5  Cc1ccnc2c1NC(=O)c1cccnc1N2C1CC1 [NVP, nevirapine]         3.03
6  O=C(O)Cc1ccccc1Nc1c(Cl)cccc1Cl [DIC, diclofenac]         2.05
7  N[C@@H]1[C@H]2CN(c3nc4c(cc3F)c(=O)c(C(=O)O)cn4-c3ccc(F)cc3F)C[C@@H]12 [TVX, Trovafloxacin]         1.21

----------
Tested on: HIVIL (iKCs co-cultured with iHeps)
Assay Explanation: AlamarBlue cell viability in HIVIL
Experimental Context: Homo sapiens, 48 h, read-out: IC50: viability
Result Type: IC50 (µM)

> print(dat)
                                   molecule  measurement
1  CC1=C(CC(=O)O)c2cc(F)ccc2/C1=C\c1ccc([S+](C)[O-])cc1 (stereo not drawn)         2060
2  N[C@@H]1[C@H]2CN(c3nc4c(cc3F)c(=O)c(C(=O)O)cn4-c3ccc(F)cc3F)C[C@@H]12         87.7
3           Cc1ccnc2c1NC(=O)c1cccnc1N2C1CC1         2610
4            O=C(O)Cc1ccccc1Nc1c(Cl)cccc1Cl          385
5          CN(C)CCCN1c2ccccc2Sc2ccc(Cl)cc21         34.4
6                        CC(=O)Nc1ccc(O)cc1        10200
